Biological target: FRMPD4, Q14CM0
Sequence (Q14CM0 67-160): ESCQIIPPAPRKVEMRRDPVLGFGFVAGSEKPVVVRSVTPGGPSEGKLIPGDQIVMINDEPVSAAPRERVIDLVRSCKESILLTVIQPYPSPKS
Assay: holdup assay
Design: key: below the threshold = too weak to quantify, mostly under pKd 3.1 to 4
Details: plain residues with an end cap or a label only (N-terminal biotin on a linker: ahx)

{"Binder": "APSRKLNTEI [TIAM1, Q13009]", "pKd": "below the threshold"}
{"Binder": "TEAKLTETNA [MYO18A, Q92614]", "pKd": "below the threshold"}
{"Binder": "TQKFRASTAL [FRMPD1, Q5SYB0]", "pKd": 3.73}
{"Binder": "QDEKVKESYV [ABCA1, O95477]", "pKd": "below the threshold"}
{"Binder": "HTHSYIETHV [CNKSR2, Q8WXI2]", "pKd": "below the threshold"}
{"Binder": "QPRTWLQSPV [RTKN, Q9BST9]", "pKd": "below the threshold"}
{"Binder": "EKQAKGDTEF [CACYBP, Q9HB71]", "pKd": 3.55}
{"Binder": "QNTDDVQTSF [ACE2, Q9BYF1]", "pKd": 3.67}
{"Binder": "TESNLQTSSC [CGN, Q9P2M7]", "pKd": "below the threshold"}
